B1: FCHSD1 (parent)
chain: LEAAEVILEHAHRGEQTTSQVSWE

variants of: B1; assay: protein stability index of a GFP-peptide fusion (GPS, HEK-293T) (PSI 1-6); higher = more stable; conditions: c terminus: a fixed tail appended;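 note: lentivirally expressed fusions sorted by FACS into six bins by GFP to DsRed ratio, PSI derived from sequencing read proportions per bin multiplied by bin number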
Class boundaries, taken from values of protein stability index, are as follows: bin A = under 3, bin B = from 3 up to 4, bin C = 4 and over

INSERT INTO measurements (mutation_notation, discrete_label) VALUES
  ('V6Y', 'bin C'),
  ('T17M', 'bin B'),
  ('E15Q', 'bin B'),
  ('E5R', 'bin C'),
  ('T17L', 'bin A'),
  ('G14R', 'bin C'),
  ('V21F', 'bin B'),
  ('A11S', 'bin C'),
  ('S19L', 'bin A');

These entries and their values trace back to the supplement of paper PMC10567573.
